Test system: Pseudomonas aeruginosa and MRPA strains
TEST_PROTOCOL: microbe, parasite or virus in culture
Assay type: cell-based
CONDITION_SET: P. aeruginosa 4319 (multidrug-resistant); broth micro-dilution, 37 °C, 18–24 h, triplicate
Where no end group is shown, it is not given here.
Some substances, each annotated with its measured MIC.
ENDPOINT: MIC

- SUBSTANCE: "ILKKLWEGVKSI-NH2 [Hp1404-T1a]"
  MEASURED_TARGET: "Pseudomonas aeruginosa and MRPA strains"
  ENDPOINT: "MIC"
  REPORTED_RESULT: ">25 µM"
- SUBSTANCE: "ILKKLLEGVKSI-NH2 [Hp1404-T1b]"
  MEASURED_TARGET: "Pseudomonas aeruginosa and MRPA strains"
  ENDPOINT: "MIC"
  REPORTED_RESULT: ">25 µM"
- SUBSTANCE: "ILGKLWEGVKSI-NH2 [Hp1404-T1]"
  MEASURED_TARGET: "Pseudomonas aeruginosa and MRPA strains"
  ENDPOINT: "MIC"
  REPORTED_RESULT: ">25 µM"
